tested on: SK-OV-3; assay: NCI tumour cell line growth inhibition, 48 h
Calls of active or inactive are those of the source. No stated cut-off is given here; in the data, active = GI50 up to about 1.1 µM and inactive = higher.
Could you please report measured GI50 for the items listed next?

Form field GI50 for item COC1=C(OC)C(=O)C(Sc2ccc3ccccc3c2)=CC1=O on SK-OV-3: 16.1 µM (inactive)

Form field GI50 for item O=C(O)c1cc2cc(c1)/N=C/c1ccccc1OCc1cccc(n1)COc1ccccc1/C=N/2 on SK-OV-3: > 25 µM (inactive)

Form field GI50 for item COC(=O)c1c(OC(C)=O)ccc2c1c1c(OC(C)=O)c3ccccc3c(OC(C)=O)c1n2Cc1cc(OC)cc(OC)c1 on SK-OV-3: 9.68 µM (inactive)

Form field GI50 for item CCN(CC)CCSc1nc2cccc([N+](=O)[O-])c2[nH]1 on SK-OV-3: > 100 µM (inactive)

Just for reference, ChEMBL document CHEMBL1201862 is where these values come from.
